Data provenance is patent US6521623B1.

system.tested: 5-HT1A (Homo sapiens, UniProt P08908)
Sequence (P08908 1-422): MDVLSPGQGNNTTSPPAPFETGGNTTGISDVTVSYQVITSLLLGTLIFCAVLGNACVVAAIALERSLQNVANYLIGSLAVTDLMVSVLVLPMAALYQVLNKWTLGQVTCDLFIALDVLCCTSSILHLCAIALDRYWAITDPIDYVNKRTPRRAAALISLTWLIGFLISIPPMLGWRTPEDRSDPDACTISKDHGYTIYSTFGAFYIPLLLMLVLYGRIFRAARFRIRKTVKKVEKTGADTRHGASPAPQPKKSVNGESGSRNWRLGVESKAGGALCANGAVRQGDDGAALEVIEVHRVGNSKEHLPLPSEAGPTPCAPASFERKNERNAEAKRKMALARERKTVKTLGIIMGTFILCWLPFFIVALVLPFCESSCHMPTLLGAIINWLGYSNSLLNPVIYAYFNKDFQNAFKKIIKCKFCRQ
method: 5HT1A Radioligand Receptor Binding Assay ([3H]-8-OH-DPAT, CHO cell membranes)
Set-up: expressed in transfected cells; host or cells: CHO cells
test.parameters: [3H]-8-OH-DPAT; CHO membranes, human 5-HT1A; read-out: 5-HT1A Receptor Binding IC50
reported.property: IC50 (nM)
Could you give me the number in nM? Just the number is fine.

compound	system.tested	reported.property	measurement.units	measured.value
CCNC(=O)OCCn1c(=O)n(CCN2CCN(c3cccc(C)c3C)CC2)c2ccccc21 [Compound 215]	5-HT1A (Homo sapiens, UniProt P08908)	IC50	nM	0.85

Param readout = IC50; param system = 5-HT1A (Homo sapiens, UniProt P08908); param query = O=c1n(C/C=C/CN2CCN(c3cccc(C(F)(F)F)c3)CC2)c2ccccc2n1CCN1CCCCC1 [Compound 335] ; response: value
3.5

Param readout = IC50; param system = 5-HT1A (Homo sapiens, UniProt P08908); param query = CC(=O)NCCn1c(=O)n(C/C=C\CN2CCN(c3cccc(C)c3C)CC2)c2ccccc21 [Compound 468] ; response: value
3.1

Param readout = IC50; param system = 5-HT1A (Homo sapiens, UniProt P08908); param query = O=c1n(CCN2CCOCC2)c2ccccc2n1CCN1CCN(c2cccc(C(F)(F)F)c2)CC1 [Compound 228] ; response: value
6

Param readout = IC50; param system = 5-HT1A (Homo sapiens, UniProt P08908); param query = O=c1n(C/C=C/CN2CCN(c3ccccn3)CC2)c2ccccc2n1CCO [Compound 381] ; response: value
44

Param readout = IC50; param system = 5-HT1A (Homo sapiens, UniProt P08908); param query = O=c1n(C/C=C/CN2CCN(c3ccccn3)CC2)c2ccccc2n1CCN1CCOCC1 [Compound 347] ; response: value
13

Param readout = IC50; param system = 5-HT1A (Homo sapiens, UniProt P08908); param query = COCCn1c(=O)n(C/C=C/CN2CCN(c3cccc(C(F)(F)F)c3)CC2)c2ccccc21 [Compound 301] ; response: value
2.6
